System: human platelet suspension (platelet aggregation caused by TxA2 agonist U46619)
METHOD NOTES: Platelet aggregation reaction test, U46619-induced
Assay type: cell-based
Exercise: state measured IC50 for each of the compounds provided.

COc1ccc(/C=C/C(=O)c2ccc(OC)cc2OCC(=O)O)cc1 > 100 µM
CCOC(=O)COc1cc(O)ccc1C(=O)C=Cc1ccc([N+](=O)[O-])cc1 > 20 µM
CCCCCCCCCCOc1ccc(C=CC(=O)c2ccc(OCCCCCCCCCC)cc2OCC(=O)OC)cc1 > 50 µM

Request: If you can, please state the reported IC50 value of `CCOC(=O)COc1cc(O)ccc1C(=O)C=Cc1ccc(Cl)cc1` .
Response: > 100 µM
